MEASUREMENT_LABEL: logP
Provide a numeric answer; units are not to be included.

// solved cases for logP follow
INSERT INTO results (compound, experimental_result) VALUES
  ('CCCCCCCCCNCc1ccc(C)cc1', 5.7),
  ('COS(=O)c1ccc(O)cc1 (stereo not given)', 0.58),
  ('CCCc1c2c(c(O)c3c(=O)cc(C(=O)O)oc13)CCCC2', 5),
  ('COc1ccc(Cc2nccc3cc(OC)c(OC)cc23)cc1OC', 2.95),
  ('CC(C)(C)S(=O)(=O)CC(Cc1cccc2ccccc12)C(=O)NC(Cc1cnc[nH]1)C(=O)NC(CC1CCCCC1)C(O)C(O)C1CC1 (stereo not given)', 3.15),
  ('CCCCNc1ccc(C(=O)OCCN(C)C)cc1', 3.51);

Query: Query (compound): O=C1O[C@H]([C@@H](O)CO)C(O)=C1O ; field requested: logP
Response: -1.85

Query: What would you report for CC(C)(C)S(=O)(=O)CC(Cc1ccccc1)C(=O)NC(Cc1cnc[nH]1)C(=O)NC(CC1CCCCC1)C(O)C(O)C1CC1 (stereo not given) ?
Response: 2.75

Query: What would you report for CN1C(C(=O)Nc2ccccn2)=C(O)c2ccccc2S1(=O)=O ?
Response: 3.06

Query: What would you report for CCN(CC)CCOC(=O)c1ccc(N)cc1 ?
Response: 2.14

Query: What would you report for CCc1cc(CC(C#N)C#N)cc(CC)c1O ?
Response: 4.12

Query: What would you report for N#CC(C#N)Cc1ccc(O)cc1 ?
Response: 3.08

Query: What would you report for COc1ccccc1OCCNCC(O)COc1cccc2[nH]c3ccccc3c12 (stereo not given) ?
Response: 4.19

Query: What would you report for N[C@@H](Cc1ccccc1)C(=O)O (racemic) ?
Response: -1.38

Query: What would you report for Cc1cnc(NC(=O)C2=C(O)c3ccccc3S(=O)(=O)N2C)s1 ?
Response: 3.43
